Assay: NCI Yeast Anticancer Drug Screen. Data for the sgs1 mgt1 strain (AID 161);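 note: 0% = growth of cultures given vehicle only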
Details: S. cerevisiae sgs1 mgt1 strain, at 50.0 µM
Compounds without any hit were thinned out: in the full panel of roughly 79,000, 15% have a hit. Calls of active or inactive are those of the source. Cut-off read from the data, not from the text of the source: active = growth inhibition above about 70%; inactive = the rest.
Labels: 1 = active, -1 = inactive

In [3]: df
Out[3]:
                                    compound  label_class
 0  Cn1nc(-c2cccc(-c3nn(C)c(=NCCO)s3)n2)sc1=NCCO           -1
 1                   CC(C)(C)OC(=O)N1CCCC1=O           -1
 2                           CNC(=O)CCC(=O)O           -1
 3  CC(=O)C1C(=O)C(=O)N(CCN2C(=O)C(=O)C(C(C)=O)C2=O)C1=O (configuration not stated)           -1
 4      Cc1cc(=O)c2cc([N+](=O)[O-])ccc2[nH]1           -1
 5  O=C(O)c1ccn(-c2cccc(-n3ccc(C(=O)O)n3)n2)n1           -1
 6  Nc1ncnc2c1ncn2C1CCN(CCO)C1=O (configuration not stated)           -1
 7  COc1cc(C=Nc2ccc3c(c2)OCO3)ccc1OC(=O)c1ccccc1           -1
 8                            CCC(CC)C(=O)NC           -1
 9  CCC(C)(C)c1ccc(OCCCCNC(=O)c2ccc3ccccc3c2O)c(C(C)(C)CC)c1           -1
10  C[N+]12C=CC=C1C(N1CCCC1)c1sc(-c3ccc(Cl)cc3)cc12 (configuration not stated)           -1
11  CC1CCC2N(C1)CC1C3(O)CC4(O)C(CCC5C(=O)C(O)CCC54C)C3(O)CC(O)C1(O)C2(C)O (configuration not stated)           -1
12                     C=CCOC(=O)c1cccc(C)c1           -1
13  O=C(c1ccc(Cl)cc1)C(Br)C(C[N+](=O)[O-])c1ccccc1 (configuration not stated)            1
14      O=C(Nc1ccc2ccccc2c1)c1ccc(Cl)c(Cl)c1           -1
15               CC(C)(C)CC(CC(C)(C)C)C(=O)O           -1
16            CN(C)C=Nc1ccc2[nH]c3ccccc3c2c1           -1
17     CN(C)CCCNc1ccc2ncn3c4ccccc4c(=O)c1c23           -1
18  CC1CCOCCCOC(=O)CCOCCC(=O)OCCCOCCCOC(=O)CCOCCC(=O)O1 (configuration not stated)           -1
19       CN(/N=C/C=N/N(C)C1=NCCCN1)C1=NCCCN1           -1
20  CCCN(CCC)S(=O)(=O)c1ccc(NC(=O)Oc2cc(C)ccc2C(C)C)cc1           -1
21  O=C(NCCN1CCOCC1)c1ccc(C(=O)NCCN2CCOCC2)cc1           -1
22  O=C1CCC(c2nc3ccccc3o2)C(=O)N1 (configuration not stated)           -1
23        Cc1cn(C)c2c1-c1c(cnn1-c1ccccc1)CC2           -1
24  CC(C)CCC[C@@H](C)[C@H]1CC[C@H]2[C@@H]3CC[C@H]4N(C)[C@@H](Cc5ccccc5)CC[C@]4(C)[C@H]3CC[C@]12C           -1
25  OC(c1cc(-c2ccccc2)nc2c1ccc1ccccc12)C1CCCCN1 (configuration not stated)           -1
26                      COc1cc(Br)c(Br)cc1Br           -1
27                        COc1ccc(C(C)=O)cc1           -1
28                 OCC(CO)(CO)COCC(CO)(CO)CO           -1
29  O=C(OCc1ccccc1)C1CCCN1C(=O)C(CSC(c1ccccc1)(c1ccccc1)c1ccccc1)NC(c1ccccc1)(c1ccccc1)c1ccccc1 (configuration not stated)           -1
30                     CCOC(=O)NCC(Cl)(Cl)Cl           -1
31      Cc1cc([O-])c([I+]c2ccccc2)c(=O)[nH]1            1
32                    Cc1ccc(NC(=O)C(C)C)cc1           -1
33  Cc1ccc(OP2(Oc3ccc(C)cc3)=NP(Oc3ccc(C)cc3)(Oc3ccc(C)cc3)=NP(Oc3ccc(C)cc3)(Oc3ccc(C)cc3)=N2)cc1           -1
34                      CCC(CC)C(=O)NC(=O)NC           -1
35  O=[N+]([O-])c1cccc(C2=NOC3CCCC23)c1 (configuration not stated)           -1
36  Cc1cccc(C)c1NC(=O)C(=O)C(C#N)c1c(Cl)cccc1Cl (configuration not stated)           -1
37  COc1cc(O)c2c(=O)c(OC)c(-c3ccc4c(c3)OCO4)oc2c1           -1
38  O=C(NC(=O)c1c(F)cccc1F)Nc1ccc(OCc2ccccc2)cc1           -1
39  O=C(c1ccccc1)C(O)(Cc1ccccc1)c1ccccc1 (configuration not stated)           -1
40                          CCOC1=CC(=O)CCC1           -1
41     Clc1ccc(C(n2cc(Br)cn2)n2cc(Br)cn2)cc1            1
42  N/C(=N\N=C\c1c[nH]c2cc(C(F)(F)F)ccc2c1=O)NO           -1
43  C=C(CN(CC)CC)C1(c2ccccc2)CC2(CCCC2)C(=O)O1 (configuration not stated)           -1
44  CCOC(=O)c1[nH]n(-c2ccccc2)c(=O)c1/C=N/C(=S)Nc1c(CC)cccc1CC           -1
45                 COC(=O)CCCCC#CCCCCC(=O)OC           -1
46              N#CC(=Nc1ccccc1)c1cccc(Br)c1           -1
